B1: library; numbered along this chain (parent)
chain: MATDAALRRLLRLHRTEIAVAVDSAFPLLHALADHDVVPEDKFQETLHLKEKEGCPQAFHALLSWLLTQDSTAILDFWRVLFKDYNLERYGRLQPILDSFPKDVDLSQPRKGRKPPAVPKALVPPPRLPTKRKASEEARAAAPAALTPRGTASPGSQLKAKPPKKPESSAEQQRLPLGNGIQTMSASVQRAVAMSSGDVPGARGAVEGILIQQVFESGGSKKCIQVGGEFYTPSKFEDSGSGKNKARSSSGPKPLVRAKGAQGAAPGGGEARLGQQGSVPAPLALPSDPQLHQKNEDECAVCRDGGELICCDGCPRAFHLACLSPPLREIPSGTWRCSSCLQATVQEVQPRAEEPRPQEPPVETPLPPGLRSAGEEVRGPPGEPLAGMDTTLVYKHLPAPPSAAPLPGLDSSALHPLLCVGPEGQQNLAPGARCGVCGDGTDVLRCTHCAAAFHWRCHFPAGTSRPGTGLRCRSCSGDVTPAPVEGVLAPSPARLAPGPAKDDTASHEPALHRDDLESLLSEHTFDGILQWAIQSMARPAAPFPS

Variants of: B1
assay-name: AIRE transcriptional activation functional score (insulin promoter-GFP; nonsense median 0, synonymous median 1) (normalised score); higher = higher AIRE activity (more reporter activation)
conditions: with insulin promoter-GFP reporter in HEK293
endpoint: AIRE transcriptional activation functional score

> print(dat)
    variant.notation  recorded.result
 1             G201I             1.23
 2              A21C            0.675
 3             G155K            0.662
 4              D98W           -0.885
 5             Q108Y             1.24
 6             E237K            0.979
 7             D478S            0.816
 8             Q534T             1.76
 9              P95Q             1.61
10             A321D            0.763
11             E307C            0.732
12              T16Y            0.309
13             A510W            0.663
14              Y85V            0.302
15             V345G             1.12
16             P481W             1.39
17              L81H             -1.4
18             R316V            0.904
19             L291H            0.333
20             E508M            0.536
21             A246W             1.47
22             E307P            0.172

These data points were gathered from the supplement of paper PMC12667976.
